system: NCI-H520; assay: relative viability (nuclei count vs DMSO), 5 days (fraction); higher = more cells survive; details: first compound 2.53 µM
readout-label: relative viability

• O=c1[nH]c2ccccc2n1C1CCN(CCCC(c2ccc(F)cc2)c2ccc(F)cc2)CC1 [Pimozide] + CCNC(=O)c1noc(-c2cc(C(C)C)c(O)cc2O)c1-c1ccc(CN2CCOCC2)cc1 [Luminespib] (partner 0.01 µM) = 0.227
• O=c1[nH]c2ccccc2n1C1CCN(CCCC(c2ccc(F)cc2)c2ccc(F)cc2)CC1 [Pimozide] + CC(C)C[C@H](NC(=O)[C@H](Cc1ccccc1)NC(=O)c1cnccn1)B(O)O [Bortezomib] (partner 0.002 µM) = 0.437
